- Test Details: Pharmacokinetics of M6G at single and multiple intravenous doses in healthy volunteers
- Assay type: in vivo, human
- Conditions: both sexes, human, plasma, intravenous, 15 mg/70 kg, multiple dose, Dose 5-15 mg; Median; read-out: AUC24-∞
Measurement Name: AUC (ng·h/mL)
Kindly provide the numeric value in ng·h/mL only, without the unit symbol.

[in] Data request, read-out AUC, for CN1CC[C@]23c4c5ccc(O)c4O[C@H]2[C@@H](OC2OC(C(=O)O)C(O)C(O)C2O)C=CC3[C@H]1C5 (stereo partly shown)
[out] 2210

----------
- Test Details: Pharmacokinetics of M6G at single and multiple intravenous doses in healthy volunteers
- Format: in vivo, human
- Conditions: both sexes, human, plasma, iv, 30 mg/70 kg, single 5 min iv infusion 30 mg; Mean; read-out: MRT0-∞
- Method: Healthy male and female subjects were divided into two groups (A and B) with 12 in each. Group A received three single intravenous infusions of M6G over 5 mins at levels of 15, 30 and 45 mg/70 kg in random order, having taken 50 mg of naloxone orally 24 hrs beforehand. […] Vital signs (supine blood pressure, pulse, respiratory rate and oral temperature), respiration rate, pulse oximetry and adverse events were monitored during the study. Plasma levels of M6G were measured using HPLC/ms/ms.
Measurement Name: MRT inf (h)
Kindly provide the numeric value in h only, without the unit symbol.

[in] Data request, read-out MRT inf, for CN1CC[C@]23c4c5ccc(O)c4O[C@H]2[C@@H](OC2OC(C(=O)O)C(O)C(O)C2O)C=CC3[C@H]1C5 (stereo partly shown) [M6G]
[out] 1.77
